molecular target: human TYK2 (JH2domain-pseudokinase) (Homo sapiens (Human), UniProt P29597); assay: TYK2 JH2 Domain Binding Assay (KINOMEscan competition binding); conditions: Table 4: pyrimidinyl compound of Formula I versus compounds with a different heteroaryl core; read-out: TYK JH2 (Kd)
Sequence (P29597 556-888): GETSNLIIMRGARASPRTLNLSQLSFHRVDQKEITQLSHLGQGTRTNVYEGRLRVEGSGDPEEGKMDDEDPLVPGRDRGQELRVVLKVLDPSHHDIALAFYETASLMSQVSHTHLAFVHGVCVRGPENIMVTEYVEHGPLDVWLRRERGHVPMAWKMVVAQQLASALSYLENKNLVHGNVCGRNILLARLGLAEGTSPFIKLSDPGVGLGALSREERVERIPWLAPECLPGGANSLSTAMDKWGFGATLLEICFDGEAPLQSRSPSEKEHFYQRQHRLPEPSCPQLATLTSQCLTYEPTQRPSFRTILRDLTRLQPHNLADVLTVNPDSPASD
measured-attribute: Kd (µM)
The response must be a number in µM with no trailing unit.

Q. Report Kd for CNC(=O)c1cnc(N2CCC(C(=O)NC)C2)cc1Nc1ccc(C2CC2)nc1 (stereo not drawn) [reference compound] please.
A. 10

Q. Report Kd for CNC(=O)c1nnc(N2CCC(C(=O)NC)C2)cc1Nc1ccc(C2CC2)nc1 (stereo not drawn) [reference compound] please.
A. 31

Q. Report Kd for CNC(=O)c1cnc(N2CCC(C(=O)NC)C2)nc1Nc1ccc(C2CC2)nc1 (stereo not drawn) [drawing 147] please.
A. 0.17

----------
biological target: human TYK2 (JH2domain-pseudokinase) (Homo sapiens (Human)); assay: TYK2 JH2 Domain Binding Assay (KINOMEscan competition binding); conditions: KINOMEscan; 11-point 3-fold dilution, top concentration 30,000 nM; Kd measurements in duplicate; read-out: TYK JH2 (Kd)
measured-attribute: Kd
Show the value, then the unit it is measured in.

Q. GET /values?readout=Kd&system=human TYK2 (JH2domain-pseudokinase) (Homo sapiens (Human))&item= `CS(=O)(=O)c1ccccc1Nc1nc(N2CCC(C(=O)O)CC2)ncc1C(N)=O`
A. 330 nM

Q. GET /values?readout=Kd&system=human TYK2 (JH2domain-pseudokinase) (Homo sapiens (Human))&item= `CNC(=O)c1cnc(N2CCCN(C(=O)OC(C)(C)C)CC2)nc1Nc1ccccc1OC`
A. 44000 nM

Q. GET /values?readout=Kd&system=human TYK2 (JH2domain-pseudokinase) (Homo sapiens (Human))&item= CNC(=O)c1cnc(N2CCN(C(=O)OC(C)(C)C)CC2C)nc1Nc1ccccc1OC (centres unmarked)
A. 17000 nM

Q. GET /values?readout=Kd&system=human TYK2 (JH2domain-pseudokinase) (Homo sapiens (Human))&item= CNC(=O)c1cnc(N2CCC(C(=O)NC)C2)nc1Nc1ccc(C2CC2)nc1 (centres unmarked)
A. 170 nM

Q. GET /values?readout=Kd&system=human TYK2 (JH2domain-pseudokinase) (Homo sapiens (Human))&item= CNC(=O)c1cnc(N2CCN(C(=O)OC(C)(C)C)CC2C)nc1Nc1ccc(C2CC2)nc1 (centres unmarked)
A. 42000 nM

Q. GET /values?readout=Kd&system=human TYK2 (JH2domain-pseudokinase) (Homo sapiens (Human))&item= `CCOC(=O)C1CCN(c2ncc(C(N)=O)c(Nc3ccccc3S(C)(=O)=O)n2)CC1`
A. 2.6 nM

Q. GET /values?readout=Kd&system=human TYK2 (JH2domain-pseudokinase) (Homo sapiens (Human))&item= `CNC(=O)c1cnc(N2CC[C@@H](C(=O)NC)C2)nc1Nc1cccc(-c2ncc(F)cn2)c1OC`
A. 0.69 nM

Q. GET /values?readout=Kd&system=human TYK2 (JH2domain-pseudokinase) (Homo sapiens (Human))&item= `CCOC(=O)C1CCN(c2ncc(C(=O)NC)c(Nc3ccccc3S(C)(=O)=O)n2)CC1`
A. 21 nM

----------
target: human TYK2 (JH2domain-pseudokinase) (Homo sapiens (Human), UniProt P29597); assay: TYK2 JH2 Domain Binding Assay (KINOMEscan competition binding); conditions: KINOMEscan; 11-point 3-fold dilution, top concentration 30,000 nM; Kd measurements in duplicate; read-out: TYK JH2 (Kd)
measured-attribute: Kd
Show the value, then the unit it is measured in.

Q. Report Kd for NC(=O)c1cnc(N2CCCC2)nc1Nc1ccc(C2CC2)nc1 [Compound 2] please.
A. 0.012 µM

Q. Report Kd for CNC(=O)c1cnc(N2CCCN(C(=O)OC(C)(C)C)CC2)nc1Nc1ccccc1S(C)(=O)=O [Compound 66] please.
A. 6.3 µM

Q. Report Kd for CNC(=O)c1cnc(N2CCC(C(=O)NC)C2)nc1NC(=O)c1n[nH]c2c(OC)cccc12 (stereo not drawn) [Compound 56] please.
A. 11 µM
